Where do the numbers come from? From patent US20240376185A1.

- system.tested: tetanus neurotoxin (TeNT), authentic tetanus holotoxin (Clostridium tetani, UniProt P04958 2-1315)
- Sequence (P04958 2-457 limits assumed, chain 1 of 2): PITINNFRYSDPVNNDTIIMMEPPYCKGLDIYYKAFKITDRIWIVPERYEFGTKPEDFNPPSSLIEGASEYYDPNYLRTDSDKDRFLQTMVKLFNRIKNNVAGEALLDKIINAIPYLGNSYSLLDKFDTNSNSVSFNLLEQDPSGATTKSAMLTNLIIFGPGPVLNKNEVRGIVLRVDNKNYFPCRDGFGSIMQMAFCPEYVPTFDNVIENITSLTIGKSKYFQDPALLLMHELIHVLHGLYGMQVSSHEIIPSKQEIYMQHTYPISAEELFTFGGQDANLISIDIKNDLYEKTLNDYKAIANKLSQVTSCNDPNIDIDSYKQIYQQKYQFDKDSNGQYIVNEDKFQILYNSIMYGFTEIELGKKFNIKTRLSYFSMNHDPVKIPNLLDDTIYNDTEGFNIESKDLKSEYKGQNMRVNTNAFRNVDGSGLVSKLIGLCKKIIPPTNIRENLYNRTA
- Sequence (P04958 458-1315 limits assumed, chain 2 of 2): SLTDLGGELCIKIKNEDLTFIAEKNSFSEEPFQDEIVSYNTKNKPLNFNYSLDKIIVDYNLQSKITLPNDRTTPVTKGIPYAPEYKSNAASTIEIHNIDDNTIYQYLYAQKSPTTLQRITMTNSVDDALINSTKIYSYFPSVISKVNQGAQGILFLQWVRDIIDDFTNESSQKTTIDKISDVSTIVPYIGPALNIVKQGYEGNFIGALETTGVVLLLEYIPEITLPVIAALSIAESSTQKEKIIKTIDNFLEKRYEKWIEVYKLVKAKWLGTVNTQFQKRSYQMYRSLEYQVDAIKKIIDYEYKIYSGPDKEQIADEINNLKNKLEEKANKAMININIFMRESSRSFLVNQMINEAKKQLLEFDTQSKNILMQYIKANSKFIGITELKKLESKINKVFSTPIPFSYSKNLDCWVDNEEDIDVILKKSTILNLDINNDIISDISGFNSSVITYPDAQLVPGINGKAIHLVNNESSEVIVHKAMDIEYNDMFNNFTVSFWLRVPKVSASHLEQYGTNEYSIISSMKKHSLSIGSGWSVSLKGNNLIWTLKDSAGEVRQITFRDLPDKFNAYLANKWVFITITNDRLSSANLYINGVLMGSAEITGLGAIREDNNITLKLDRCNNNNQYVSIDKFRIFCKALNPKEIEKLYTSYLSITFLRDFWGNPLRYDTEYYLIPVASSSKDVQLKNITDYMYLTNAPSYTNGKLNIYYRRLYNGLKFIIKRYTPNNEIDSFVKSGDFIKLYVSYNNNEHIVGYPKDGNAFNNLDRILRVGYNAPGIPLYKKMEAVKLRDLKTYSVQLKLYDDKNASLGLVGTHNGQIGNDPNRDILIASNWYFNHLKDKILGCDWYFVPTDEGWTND
- assay.method.text: bridging ELISA: coated TeNT, SDA, biotinylated TeNT, StrepPO (bivalent binding)
maximal absorbance value: recorded values
Express your answer in A450, writing the number without its unit.

SVT06-GS2-SVG13M4-H6 (bispecific antibody) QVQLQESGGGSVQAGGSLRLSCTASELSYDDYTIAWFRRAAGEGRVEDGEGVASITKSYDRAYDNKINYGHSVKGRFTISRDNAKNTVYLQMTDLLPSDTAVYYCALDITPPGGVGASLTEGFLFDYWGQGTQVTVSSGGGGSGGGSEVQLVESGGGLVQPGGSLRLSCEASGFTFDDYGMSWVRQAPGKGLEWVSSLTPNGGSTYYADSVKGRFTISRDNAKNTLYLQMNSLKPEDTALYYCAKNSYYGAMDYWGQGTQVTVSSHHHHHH | 0.98

For the next question, use this binder.
Data request, read-out maximal absorbance value, for SVG13L (VHH) VHH: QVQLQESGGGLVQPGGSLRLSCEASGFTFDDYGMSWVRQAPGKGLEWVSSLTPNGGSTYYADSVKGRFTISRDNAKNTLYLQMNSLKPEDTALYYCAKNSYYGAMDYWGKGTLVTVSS
0.17
